# Target or system: Thioredoxin reductase (Mycobacterium tuberculosis) (UniProt P9WHH1)
# Sequence (P9WHH1 whole entry): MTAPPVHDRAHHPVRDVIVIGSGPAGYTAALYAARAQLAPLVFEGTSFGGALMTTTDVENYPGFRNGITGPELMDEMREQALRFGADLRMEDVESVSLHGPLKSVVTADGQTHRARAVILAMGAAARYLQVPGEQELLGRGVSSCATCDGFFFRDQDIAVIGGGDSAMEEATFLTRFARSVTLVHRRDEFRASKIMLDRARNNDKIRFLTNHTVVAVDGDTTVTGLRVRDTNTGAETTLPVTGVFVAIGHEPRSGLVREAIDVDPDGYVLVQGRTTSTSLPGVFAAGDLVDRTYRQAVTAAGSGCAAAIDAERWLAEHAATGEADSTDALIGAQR
# Method notes: Inhibition of Mycobacterium tuberculosis TrxR at 5 uM after 10 mins by microplate reader analysis
# inhibition listing for each entry below
# unit: % | format: bare number

Below, each entry is followed by its recorded inhibition result.
{"columns": ["Compound", "Target or system", "Unit symbol", "inhibition"],
 "data": [
  ["O=C(Nc1ccc(N2CCC(NCCOc3cccnc3)CC2)cc1)c1cnccn1", "Thioredoxin reductase (Mycobacterium tuberculosis) (UniProt P9WHH1)", "%", 12],
  ["O=C(O)[C@H](Cc1cc2ccccc2[nH]1)NCc1c[nH]c2ccccc12", "Thioredoxin reductase (Mycobacterium tuberculosis) (UniProt P9WHH1)", "%", 31.7],
  ["c1ccc2sc(CNc3ccc(N4CCCCC4)cc3)nc2c1", "Thioredoxin reductase (Mycobacterium tuberculosis) (UniProt P9WHH1)", "%", 39.7],
  ["Nc1nc(-c2cc3ccc(O)cc3oc2=O)cs1", "Thioredoxin reductase (Mycobacterium tuberculosis) (UniProt P9WHH1)", "%", 17.3]
]}

Requested read-out: inhibition. Entry: C=CCc1cccc(/C=N/NC(=O)CCC2C(=O)NN=C2C)c1O (stereo unspecified)
31

Requested read-out: inhibition. Entry: `Nc1ccc(N2CCCCC2)cc1`
17

Requested read-out: inhibition. Entry: `CSCCNC1CCN(c2ccc(NC(=O)CCCCc3ccccc3)cc2)CC1`
29.7

Requested read-out: inhibition. Entry: `Fc1cccc(Cl)c1CNc1ccc(N2CCCCC2)cc1`
41.7

Requested read-out: inhibition. Entry: `NC1=C(c2nc(-c3ccccc3)cs2)C(=O)CN1c1ccc(S(N)(=O)=O)cc1`
9.9

Requested read-out: inhibition. Entry: `COc1ccc2nc(C)cc(Nc3ccc(O)cc3)c2c1`
36

Requested read-out: inhibition. Entry: `O=C(COc1ccccc1)Nc1ccc(N2CCC(NCc3cccc(-n4cccn4)c3)CC2)cc1`
16.9
